Tested on: MCF7 breast
Assay: NCI tumour cell line growth inhibition, 48 h
ENDPOINT_NAME: TGI

Below: 2 molecules and their reported TGI.
[[record]]
molecule = "C[C@]12C[C@H](c3ccccc3)Nc3ccccc3N1C(c1ccccc1)=NO2"
result = "> 100 µM"

[[record]]
molecule = "O=C(/C=C/c1ccc(F)cc1)c1ccc(Cl)cc1Cl"
result = "62.5 µM"


Then this molecule:
Exam item: Quick check: TGI of COc1cc(S(=O)(=O)Nc2nc(-c3ccc(N4C(=O)CSC4c4cccs4)cc3)cs2)ccc1Cl (stereo not drawn) ?
Marked response: > 100 µM

* * *

Entries and their TGI values follow.
Test system: NCI-H23 lung
Experiment: NCI tumour cell line growth inhibition, 48 h

[[record]]
molecule = "CC(=O)[O-].CC(=O)[O-].[Pt+2].c1cscn1.c1cscn1"
endpoint_name = "TGI"
result = "> 100 µM"

[[record]]
molecule = "O=c1[nH]n(Cc2ccccc2Cl)c2ccc([N+](=O)[O-])cc12"
endpoint_name = "TGI"
result = "> 100 µM"

[[record]]
molecule = "O=c1c(C=Nc2ccccc2Cl)c(O)n(-c2ccccc2)c(=O)n1-c1ccccc1"
endpoint_name = "TGI"
result = "> 100 µM"

[[record]]
molecule = "c1ccc2c(c1)CCC/C2=N\\OCC1CO1 (stereo not drawn)"
endpoint_name = "TGI"
result = "> 100 µM"

[[record]]
molecule = "CC(C)(C#N)c1cc(Cn2cncn2)cc(C(C)(C)C#N)c1"
endpoint_name = "TGI"
result = "> 10000 µM"


From here, focus on the item given below.
Exam item: What TGI value was documented for this molecule, COC(=O)c1cc2c(o1)Sc1ccccc1NC2=O ?
Marked response: > 100 µM
